These entries and their values trace back to ChEMBL document CHEMBL1961873.

molecular target: Tyrosine-protein kinase Fer (Homo sapiens); conditions: at 0.1 µM;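 note: reported figures are averaged percent inhibition of FER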
# maps each entry to its inhibition

[
  {
    "COMPOUND": "c1ccc(-c2n[nH]cc2-c2ccnc(-c3ccc(OCCN4CCOCC4)cc3)c2)nc1",
    "UNIT INFO": "%",
    "inhibition": 7.06
  },
  {
    "COMPOUND": "NS(=O)(=O)c1ccc(Nc2cc(-c3ccc(O)c(F)c3)n[nH]2)cc1",
    "UNIT INFO": "%",
    "inhibition": 5.83
  },
  {
    "COMPOUND": "O=C1Nc2ccc(I)cc2C1=Cc1cc(Br)c(O)c(Br)c1",
    "UNIT INFO": "%",
    "inhibition": -1.96
  },
  {
    "COMPOUND": "C[C@@H](Oc1cc(-n2cnc3ccc(OC4CCN(C)CC4)cc32)sc1C(N)=O)c1ccccc1Cl",
    "UNIT INFO": "%",
    "inhibition": 3.05
  },
  {
    "COMPOUND": "CNC(=O)c1cncc(/C=C/c2c(C)cccc2C)c1",
    "UNIT INFO": "%",
    "inhibition": 1.13
  },
  {
    "COMPOUND": "CCS(=O)(=O)c1ccc(OC)c(Nc2ncc(-c3ccccc3Cl)o2)c1",
    "UNIT INFO": "%",
    "inhibition": -0.76
  },
  {
    "COMPOUND": "NC(=O)c1cc(-c2ccncc2)cc(-c2ccccc2)c1N",
    "UNIT INFO": "%",
    "inhibition": 6.01
  },
  {
    "COMPOUND": "NC(=O)c1ccc(Oc2nccc(-c3c(-c4ccc(F)cc4)ncn3C3CCNCC3)n2)cc1",
    "UNIT INFO": "%",
    "inhibition": 7.08
  },
  {
    "COMPOUND": "COC(=O)Nc1nc2ccc(Sc3ccc(NC(=O)Nc4cc(C(F)(F)F)ccc4F)cc3)cc2[nH]1",
    "UNIT INFO": "%",
    "inhibition": 1.93
  },
  {
    "COMPOUND": "COc1cc2ncn(-c3cc(OCc4cccs4)c(C(N)=O)s3)c2cc1OC",
    "UNIT INFO": "%",
    "inhibition": 5.05
  },
  {
    "COMPOUND": "COc1ccc(-c2ccc3c(NC(=O)C4CC4)n[nH]c3n2)cc1",
    "UNIT INFO": "%",
    "inhibition": 2
  },
  {
    "COMPOUND": "NC(=O)Cc1ccccc1Oc1nccc(-c2c(-c3ccc(F)cc3)ncn2C2CCNCC2)n1",
    "UNIT INFO": "%",
    "inhibition": 6.39
  },
  {
    "COMPOUND": "COc1cc(Nc2ncc(-c3ccccc3)o2)cc(OC)c1OC",
    "UNIT INFO": "%",
    "inhibition": -1.48
  },
  {
    "COMPOUND": "FC(F)(F)c1cccc(Nc2nccc(-c3cnn4nc(-c5ccccc5)ccc34)n2)c1",
    "UNIT INFO": "%",
    "inhibition": -2.66
  },
  {
    "COMPOUND": "CCS(=O)(=O)c1ccc(OC)c(Nc2ncc(-c3cccc(-c4ccccc4F)c3)o2)c1",
    "UNIT INFO": "%",
    "inhibition": 0.83
  },
  {
    "COMPOUND": "CCc1cccc(CC)c1/C=C/c1cncc(C(=O)NC)c1",
    "UNIT INFO": "%",
    "inhibition": 1.86
  },
  {
    "COMPOUND": "NC(=O)c1cc(-c2ccc(F)cc2)cc(-c2ccncc2)c1N",
    "UNIT INFO": "%",
    "inhibition": 1.98
  },
  {
    "COMPOUND": "COc1ccc2cc(-c3c(-c4ccncc4)nc(-c4ccc([S+](C)[O-])cc4C)n3C)ccc2c1 (stereo not drawn)",
    "UNIT INFO": "%",
    "inhibition": 1.31
  },
  {
    "COMPOUND": "O=C(Nc1ccc(Oc2ccc3[nH]c(NC(=O)c4ccccc4)nc3c2)cc1)Nc1cc(C(F)(F)F)ccc1F",
    "UNIT INFO": "%",
    "inhibition": 1.59
  },
  {
    "COMPOUND": "O=C(Nc1n[nH]c2nc(-c3ccco3)ccc12)C1CC1",
    "UNIT INFO": "%",
    "inhibition": 0.52
  },
  {
    "COMPOUND": "COc1cc(C)c(N(C)C(=O)CN(C)C)cc1Nc1nc(Nc2cccc(F)c2C(N)=O)c2cc[nH]c2n1",
    "UNIT INFO": "%",
    "inhibition": 9.81
  },
  {
    "COMPOUND": "Fc1ccc(-c2nc3n(c2-c2ccncc2)CCS3)cc1",
    "UNIT INFO": "%",
    "inhibition": 2.18
  },
  {
    "COMPOUND": "CCN(CC)Cc1ccc(Nc2nccc(-c3cnn4ncccc34)n2)cc1",
    "UNIT INFO": "%",
    "inhibition": 3.88
  },
  {
    "COMPOUND": "CCc1nccc2c1nc(-c1nonc1N)n2CC",
    "UNIT INFO": "%",
    "inhibition": 5.29
  },
  {
    "COMPOUND": "O=C1NC(=O)C(c2cccc(Cl)c2)=C1Nc1ccc(Cl)c(C(=O)O)c1",
    "UNIT INFO": "%",
    "inhibition": 3.46
  },
  {
    "COMPOUND": "COc1cc2ncn(-c3cc(OCCc4ccccc4)c(C(N)=O)s3)c2cc1OC",
    "UNIT INFO": "%",
    "inhibition": 4.91
  },
  {
    "COMPOUND": "Nc1nccc(-c2c(-c3ccc(F)cc3)ncn2C2CCC(O)CC2)n1 (stereo not drawn)",
    "UNIT INFO": "%",
    "inhibition": 5.39
  },
  {
    "COMPOUND": "CN(C)c1ccc2c(c1)/C(=C/Nc1ccc(S(N)(=O)=O)cc1)C(=O)N2",
    "UNIT INFO": "%",
    "inhibition": 2.36
  },
  {
    "COMPOUND": "CCC(=O)Nc1ccc(C)c(-c2ccc(C(=O)NCC3CC3)cc2)c1",
    "UNIT INFO": "%",
    "inhibition": -0.76
  },
  {
    "COMPOUND": "O=C1Nc2ccccc2/C1=C/Nc1ccc(-n2cncn2)cc1",
    "UNIT INFO": "%",
    "inhibition": 3.94
  },
  {
    "COMPOUND": "Fc1ccc(-c2ncn(C3CCNCC3)c2-c2ccnc(Oc3ccc(F)c(F)c3)n2)cc1",
    "UNIT INFO": "%",
    "inhibition": 1.43
  },
  {
    "COMPOUND": "O=C(Nc1n[nH]c2cc(-c3cc(F)ccc3F)ccc12)C1CC1",
    "UNIT INFO": "%",
    "inhibition": 2.98
  },
  {
    "COMPOUND": "NS(=O)(=O)c1ccc(N/N=C2\\C(=O)Nc3ccc(-c4cnco4)cc32)cc1",
    "UNIT INFO": "%",
    "inhibition": 1.03
  },
  {
    "COMPOUND": "NCc1ccc(-n2c(-c3nonc3N)nc3cnccc32)cc1",
    "UNIT INFO": "%",
    "inhibition": 3.01
  },
  {
    "COMPOUND": "Fc1ccc(-c2c(-c3ccncc3)nc3n2CCS3)cc1",
    "UNIT INFO": "%",
    "inhibition": 0.77
  },
  {
    "COMPOUND": "COc1ccc2cc(-c3c(-c4ccncc4)nc(-c4ccc(S(C)(=O)=O)cc4C)n3C)ccc2c1",
    "UNIT INFO": "%",
    "inhibition": 3.19
  },
  {
    "COMPOUND": "Fc1ccc(-c2ncn(CCCN3CCOCC3)c2-c2ccncc2)cc1",
    "UNIT INFO": "%",
    "inhibition": 0.26
  },
  {
    "COMPOUND": "Cc1ccc(C(=O)NC(C)C)cc1-c1ccc(C(=O)NCC2CC2)cc1",
    "UNIT INFO": "%",
    "inhibition": -1.9
  }
]

====

Biological target: Tyrosine-protein kinase Tec (Homo sapiens) (UniProt P42680)
Sequence (whole entry): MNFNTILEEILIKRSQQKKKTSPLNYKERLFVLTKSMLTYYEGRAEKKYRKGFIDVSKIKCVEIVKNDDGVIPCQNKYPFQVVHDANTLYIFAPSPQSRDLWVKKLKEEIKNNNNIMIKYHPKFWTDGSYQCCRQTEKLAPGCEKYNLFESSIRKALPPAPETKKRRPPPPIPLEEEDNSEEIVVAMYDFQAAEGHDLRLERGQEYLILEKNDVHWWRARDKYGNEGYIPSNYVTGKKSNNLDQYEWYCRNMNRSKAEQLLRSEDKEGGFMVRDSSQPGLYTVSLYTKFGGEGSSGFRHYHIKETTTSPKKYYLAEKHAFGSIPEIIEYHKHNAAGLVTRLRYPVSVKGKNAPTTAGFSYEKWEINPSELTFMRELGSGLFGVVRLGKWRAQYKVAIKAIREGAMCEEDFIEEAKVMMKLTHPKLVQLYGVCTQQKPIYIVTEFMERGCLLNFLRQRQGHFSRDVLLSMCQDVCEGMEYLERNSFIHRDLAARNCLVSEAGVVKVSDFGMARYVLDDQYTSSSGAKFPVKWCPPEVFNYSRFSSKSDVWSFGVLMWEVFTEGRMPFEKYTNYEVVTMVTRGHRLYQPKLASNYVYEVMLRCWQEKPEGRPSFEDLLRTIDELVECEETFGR
Details: at 0.1 µM
Description: GSK_PKIS: TEC mean inhibition at 0.1 uM [Nanosyn]
# maps each entry to its inhibition

[
  {
    "MOL SMILES": "FC(F)(F)c1cccc(Nc2nccc(-c3cnn4nc(-c5ccccc5)ccc34)n2)c1",
    "inhibition / %": -0.76
  },
  {
    "MOL SMILES": "NS(=O)(=O)c1ccc(N/N=C2\\C(=O)Nc3ccc(C(=O)NCCCn4ccnc4)cc32)cc1",
    "inhibition / %": 3.92
  },
  {
    "MOL SMILES": "CCC(=O)Nc1ccc(C)c(-c2ccc(C(=O)NCC3CC3)cc2)c1",
    "inhibition / %": 3.13
  },
  {
    "MOL SMILES": "CN1CCN(CCCNc2nc3ccc(Oc4ccc(NC(=O)Nc5cc(C(F)(F)F)ccc5F)cc4)cc3[nH]2)CC1",
    "inhibition / %": 0.68
  },
  {
    "MOL SMILES": "Cc1ccc(NC(=O)c2ccoc2)cc1-c1ccc(C(=O)NCC2CC2)cc1",
    "inhibition / %": 0.28
  },
  {
    "MOL SMILES": "CS(=O)(=O)CCNCc1ccc(-c2ccc3ncnc(Nc4ccc(OCc5ccccc5)c(Br)c4)c3c2)o1",
    "inhibition / %": -2.31
  },
  {
    "MOL SMILES": "Fc1ccc(-c2ncn(C3CCNCC3)c2-c2ccnc(Oc3ccc4c(c3)OCO4)n2)cc1",
    "inhibition / %": 2.04
  },
  {
    "MOL SMILES": "CCc1nccc2c1nc(-c1nonc1N)n2CC",
    "inhibition / %": 1.47
  },
  {
    "MOL SMILES": "COc1cc(C)c(N(C)C(=O)CN(C)C)cc1Nc1nc(Nc2cccc(F)c2C(N)=O)c2cc[nH]c2n1",
    "inhibition / %": -0.85
  },
  {
    "MOL SMILES": "CN(C)CCOc1ccc(-c2cc(-c3ccc4c(c3)CCC4=NO)c(-c3ccncc3)o2)cc1",
    "inhibition / %": 0.39
  },
  {
    "MOL SMILES": "COc1cc(N2CCN(C(C)C)CC2)ccc1Nc1nc(Nc2ccc(F)cc2C(=O)NC[C@@H](O)CO)c2cc[nH]c2n1",
    "inhibition / %": 1.33
  },
  {
    "MOL SMILES": "O=C(Nc1ccc(Oc2ccc3[nH]c(NC(=O)c4ccccc4)nc3c2)cc1)Nc1cc(C(F)(F)F)ccc1F",
    "inhibition / %": 4.86
  },
  {
    "MOL SMILES": "Fc1ccc(-c2ncn(C3CCNCC3)c2-c2ccnc(Oc3ccc(F)c(F)c3)n2)cc1",
    "inhibition / %": -2.35
  },
  {
    "MOL SMILES": "c1ccc(-c2n[nH]cc2-c2ccnc(-c3ccc(OCCN4CCOCC4)cc3)c2)nc1",
    "inhibition / %": 3.84
  },
  {
    "MOL SMILES": "O=C(NCC1CC1)c1ccc(-c2cccc(C(=O)NC3CC3)c2)cc1",
    "inhibition / %": 2.57
  },
  {
    "MOL SMILES": "Cc1ccc(C(=O)NC(C)C)cc1-c1ccc(C(=O)NCC2CC2)cc1",
    "inhibition / %": -2.75
  },
  {
    "MOL SMILES": "CCc1cccc(CC)c1/C=C/c1cncc(C(=O)NC)c1",
    "inhibition / %": 4.18
  },
  {
    "MOL SMILES": "Cc1nnc(-c2ccc(C)c(-c3ccc(C(=O)NCc4ccc(Cl)cc4)cc3)c2)o1",
    "inhibition / %": 0.01
  },
  {
    "MOL SMILES": "Fc1ccc(-c2nc3n(c2-c2ccncc2)CCS3)cc1",
    "inhibition / %": 0.9
  },
  {
    "MOL SMILES": "Clc1ccc(CNc2nccc(-c3cnn4ncccc34)n2)cc1",
    "inhibition / %": 3.07
  }
]
